Tgt: Serine/threonine-protein kinase Sgk3 (Homo sapiens) (UniProt Q96BR1)
Sequence (Q96BR1 whole entry): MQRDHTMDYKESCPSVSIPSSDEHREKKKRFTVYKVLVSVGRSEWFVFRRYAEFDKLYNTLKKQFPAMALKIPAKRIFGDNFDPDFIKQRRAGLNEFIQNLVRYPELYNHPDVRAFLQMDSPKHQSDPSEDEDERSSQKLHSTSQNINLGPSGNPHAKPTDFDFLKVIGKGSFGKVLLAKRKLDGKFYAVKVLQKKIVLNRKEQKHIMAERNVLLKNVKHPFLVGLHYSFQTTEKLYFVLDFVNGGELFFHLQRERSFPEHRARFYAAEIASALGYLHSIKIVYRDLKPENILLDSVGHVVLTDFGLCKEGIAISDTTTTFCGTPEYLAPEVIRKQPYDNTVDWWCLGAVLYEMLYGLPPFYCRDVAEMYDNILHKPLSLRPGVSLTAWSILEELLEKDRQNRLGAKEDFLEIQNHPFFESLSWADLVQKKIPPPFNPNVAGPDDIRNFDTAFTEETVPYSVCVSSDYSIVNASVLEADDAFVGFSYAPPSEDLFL
Conditions: at 10 µM
Binarize residual activity at 80%; below is true, at or above is false.

INPUT: is_below(residual activity, 80%) for COC(=O)[C@@]1(O)C[C@H]2O[C@]1(C)n1c3ccccc3c3c4c(c5c6ccccc6n2c5c31)C(=O)NC4 ?
OUTPUT: true

INPUT: Given the entry C[S+]([O-])c1ccc(-c2nc(-c3ccc(F)cc3)c(-c3ccncc3)[nH]2)cc1 (stereo not given) , would its reported residual activity be below 80%?
OUTPUT: false

INPUT: Say whether its residual activity is strictly beneath 80%. Entry: CCn1cnc2c(Nc3cccc(Cl)c3)nc(N[C@@H]3CCCC[C@@H]3N)nc21
OUTPUT: true

INPUT: Answer whether the molecule COc1cc(OC)c(/C=C2\C(=O)Nc3ccccc32)c(OC)c1 has residual activity strictly less than 80%
OUTPUT: false

INPUT: Hello, is residual activity of the following molecule strictly smaller than 80%? CC(C)[C@H](CO)Nc1nc(Nc2cccc(Cl)c2)c2ncn(C(C)C)c2n1
OUTPUT: false

* * *

Tgt: Rho-associated protein kinase 2 (Homo sapiens)
Conditions: at 10 µM
Observed Property: residual activity (%)
Report the figure in % without appending any unit label.

INPUT: Give the measured residual activity for O=C1Nc2ccc3ncsc3c2/C1=C/c1c[nH]cn1
OUTPUT: 1

INPUT: # return recorded residual activity for entry c1cc(-c2cnn3cc(-c4ccc(OCCN5CCCCC5)cc4)cnc23)ccn1
OUTPUT: 40

INPUT: Please give the documented residual activity of COc1ccc2c(c[n+](C)c3c4cc5c(cc4ccc23)OCO5)c1OC
OUTPUT: 82

INPUT: Determine its reported residual activity: CCc1nc(-c2ccc(OC)cc2)[nH]c1-c1ccncc1
OUTPUT: 82

INPUT: Complete the entry with residual activity for O=S(=O)(NCCNC/C=C/c1ccc(Br)cc1)c1cccc2cnccc12
OUTPUT: 0

INPUT: Look up residual activity of CC(C)[C@H](CO)Nc1nc(Nc2cccc(Cl)c2)c2ncn(C(C)C)c2n1 and report it.
OUTPUT: 76

INPUT: Look up residual activity of COc1ccc2c(c1)/C(=C/c1cnc[nH]1)C(=O)N2 and report it.
OUTPUT: 36

* * *

Tgt: Cyclin-dependent kinase 5/CDK5 activator 1 (Homo sapiens) (UniProt Q00535+Q15078)
Sequence (Q00535 whole entry): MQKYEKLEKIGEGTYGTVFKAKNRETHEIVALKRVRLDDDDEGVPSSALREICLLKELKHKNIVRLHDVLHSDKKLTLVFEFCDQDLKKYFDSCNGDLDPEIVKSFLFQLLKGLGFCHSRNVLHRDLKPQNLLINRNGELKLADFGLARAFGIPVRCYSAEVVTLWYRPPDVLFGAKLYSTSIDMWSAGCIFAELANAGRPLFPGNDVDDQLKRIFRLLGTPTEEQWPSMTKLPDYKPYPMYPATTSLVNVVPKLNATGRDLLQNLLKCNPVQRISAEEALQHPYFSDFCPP
Sequence (Q15078 99-307 partner limits assumed): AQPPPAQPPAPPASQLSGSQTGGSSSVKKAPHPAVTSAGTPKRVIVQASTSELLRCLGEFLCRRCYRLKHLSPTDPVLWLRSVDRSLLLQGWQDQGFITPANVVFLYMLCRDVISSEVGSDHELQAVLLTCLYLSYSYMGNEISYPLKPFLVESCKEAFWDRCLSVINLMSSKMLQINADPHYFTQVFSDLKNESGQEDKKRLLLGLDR
Conditions: at 10 µM
Observed Property: residual activity (%)
Field format: number, assumed %, no unit text.

INPUT: Answer with the recorded residual activity of COc1ccc2c(c1)/C(=C/c1cnc[nH]1)C(=O)N2 only.
OUTPUT: 0

INPUT: Let me know recorded residual activity for CC(C)(C)c1cc(C=C(C#N)C#N)cc(Br)c1O , thanks.
OUTPUT: 113

INPUT: Dear colleague, please send me the reported residual activity for O=c1[nH]c2ccccc2n1C1CCN(Cc2ccc(-c3nc4cc5[nH]cnc5cc4nc3-c3ccccc3)cc2)CC1 when you can.
OUTPUT: 77

INPUT: Specify measured residual activity for O=[N+]([O-])/C=C/c1ccc2c(c1)OCO2 .
OUTPUT: 106

INPUT: Fill in residual activity for record CCn1cnc2c(Nc3cccc(Cl)c3)nc(N[C@@H]3CCCC[C@@H]3N)nc21
OUTPUT: 0

INPUT: Please list residual activity recorded for the compound O=C1Nc2ccc3ncsc3c2/C1=C/c1c[nH]cn1
OUTPUT: 0

INPUT: Complete the entry with residual activity for COC(=O)[C@@]1(O)C[C@H]2O[C@]1(C)n1c3ccccc3c3c4c(c5c6ccccc6n2c5c31)C(=O)NC4
OUTPUT: 1

INPUT: Look up and report measured residual activity for this entry: CN[C@@H]1C[C@H]2O[C@@](C)([C@@H]1OC)n1c3ccccc3c3c4c(c5c6ccccc6n2c5c31)C(=O)NC4
OUTPUT: 2

INPUT: Using known records, supply residual activity for CC(C)[C@H](CO)Nc1nc(Nc2cccc(Cl)c2)c2ncn(C(C)C)c2n1
OUTPUT: 0

INPUT: For the compound C[S+]([O-])c1ccc(-c2nc(-c3ccc(F)cc3)c(-c3ccncc3)[nH]2)cc1 (stereo unspecified) , give its measured residual activity value.
OUTPUT: 121

INPUT: Let me know recorded residual activity for COc1cc2ncnc(Nc3ccc(OCc4ccccc4)cc3)c2cc1OC , thanks.
OUTPUT: 83
